The compounds listed here are annotated with their pIC50.
biological target: BRD4 Bromodomain 1 (BRD4 BD1) (Homo sapiens, UniProt O60885); construct: 44-168 and BRD4 BD2; assay: AlphaScreen binding assay, BRD4 BD1; details: His-tagged BRD4 BD1 50 nM, biotinylated H4 (1-21) K5/8/12/16 tetra-acetylated peptide 50 nM, compounds listed under IC50 range headings
pIC50: −log10 of the molar value.

May I ask what pIC50 has been recorded for COC(=O)N1c2ccc(-c3cnn(C4CCNCC4)c3)c(Oc3ccc(F)c(Cl)c3)c2CC[C@@H]1C ? 6.00 to 7.00

Try this compound too: C[C@H]1CCc2c(ccc(-c3cn(C)nn3)c2Oc2cccc(F)c2)N1C(=O)C1CC1 5.00 to 6.00

Input C[C@H]1CCc2c(ccc(-c3cn(C)nn3)c2Oc2cc(F)ccc2F)N1C(=O)C1CC1 6.00 to 7.00

What do you have for COC(=O)N1c2c(F)cc(-c3cnn(C4CC4)c3)c(Oc3ccccc3)c2CC[C@@H]1C ? 5.00 to 6.00

Entry to check: CC(=O)N1c2ccc(-c3cnn(C4COC4)c3)c(OC[C@@H]3CCNC3)c2CC[C@@H]1C 6.00 to 7.00

Now consider CC(=O)N1c2ccc(-c3cnn(C4CCNCC4)c3)c(OCC3CCCC3)c2CC[C@@H]1C . > 7.00

Now give it for CNC(=O)c1nc(-c2ccc3c(c2OC2CCC2)CC[C@H](C)N3C(=O)OC)cs1 too. 6.00 to 7.00

Same read-out for COC(=O)N1c2ccc(-c3cnn(CC(C)(C)O)c3)c(Oc3ncc(C(F)(F)F)cc3F)c2CC[C@@H]1C ? 5.00 to 6.00

Try this compound too: C[C@H]1CCc2c(ccc(-c3cnn(C4CNC4)c3)c2Oc2ccc(F)c(F)c2)N1C(=O)C1CC1 6.00 to 7.00

Similarly, CC(=O)N1c2ccc(-c3cnn(C4CC4)c3)c(OCC(C)(C)F)c2CC[C@@H]1C ? 6.00 to 7.00
